Test system: Escherichia coli TOP10
Assay: shrunken log2 fold change of peptide-encoding DNA abundance (4.5 h post-induction vs induction); higher = less antimicrobial activity (less host growth inhibition)
Conditions: time post-induction: 4.5 h; library: site-saturation at positions 5, 18, 19, 20
Task for the reader: assign each of the following sequences its reported shrunken log2 fold change.
Answers are plain numbers.

RRIRARPPRLPRPRPRPSAHPRP	0.101
RRIRPRPPRLPRPRPRPGRSPRP	0.0919
RRIRRRPPRLPRPRPRPKKNPRP	0.496
RRIRPRPPRLPRPRPRPRRSPRP	0.124
RRIRARPPRLPRPRPRPEDQPRP	0.0203
RRIRPRPPRLPRPRPRPRGNPRP	-0.16
RRIRMRPPRLPRPRPRPSEWPRP	0.0913

Kindly consider the entry below.
Q: Quick check: shrunken log2 fold change of `RRIRGRPPRLPRPRPRPLRRPRP` ?
Ans: 1.54

* * *

System: Escherichia coli TOP10
Experiment: shrunken log2 fold change of peptide-encoding DNA abundance (4.5 h post-induction vs induction); higher = less antimicrobial activity (less host growth inhibition)
Conditions: time post-induction: 4.5 h; library: site-saturation at positions 5, 18, 19, 20
Task for the reader: assign each of the following sequences its reported shrunken log2 fold change.
One number for each entry.

RRIRWRPPRLPRPRPRPFFCPRP	0.104
RRIRFRPPRLPRPRPRPEQFPRP	-0.115
RRIRWRPPRLPRPRPRPKKNPRP	0.341
RRIRIRPPRLPRPRPRPTMHPRP	-0.443
RRIRQRPPRLPRPRPRPDQNPRP	-0.377

Quick one: give me shrunken log2 fold change for each item below, same order please.
1. RRIRTRPPRLPRPRPRPGVRPRP
2. RRIRRRPPRLPRPRPRPEIFPRP
3. RRIRIRPPRLPRPRPRPSGRPRP
4. RRIRCRPPRLPRPRPRPMFEPRP
5. RRIRIRPPRLPRPRPRPAWEPRP
6. RRIRSRPPRLPRPRPRPFGMPRP
7. RRIRLRPPRLPRPRPRPEAVPRP

Ans:
1. 0.272
2. 0.215
3. -0.427
4. -0.212
5. -0.143
6. -0.25
7. -0.0408

Quick one: give me shrunken log2 fold change for each item below, same order please.
1. RRIRDRPPRLPRPRPRPMVGPRP
2. RRIRARPPRLPRPRPRPCFRPRP
3. RRIRDRPPRLPRPRPRPADCPRP
4. RRIRVRPPRLPRPRPRPQFEPRP
5. RRIRCRPPRLPRPRPRPKVSPRP
6. RRIRARPPRLPRPRPRPTKKPRP
7. RRIRIRPPRLPRPRPRPDYYPRP

Ans:
1: 0.564; 2: -0.0247; 3: -0.0601; 4: -0.119; 5: 0.0213; 6: 0.0778; 7: -0.155

* * *

Tested on: Escherichia coli TOP10;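 also: peptides expressed intracellularly from a pBAD plasmid library in pooled LB shake-flask culture, induced with 0.3% L-arabinose, DNA abundance read by NGS, three biological replicates, DESeq2 with apeglm shrinkage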
Assay: shrunken log2 fold change of peptide-encoding DNA abundance (4.5 h post-induction vs induction); higher = less antimicrobial activity (less host growth inhibition)
Conditions: time post-induction: 4.5 h; library: site-saturation at positions 5, 18, 19, 20
Label Criterion met when shrunken log2 fold change >= -0.2; otherwise Criterion not met.

Some solved cases for reference:
RRIRVRPPRLPRPRPRPYIIPRP	Criterion not met
RRIRFRPPRLPRPRPRPDKNPRP	Criterion not met
RRIRYRPPRLPRPRPRPNFGPRP	Criterion met
RRIRRRPPRLPRPRPRPVSHPRP	Criterion met
RRIRHRPPRLPRPRPRPLLFPRP	Criterion not met

Q: // inclusive: shrunken log2 fold change at least -0.2? input: `RRIRHRPPRLPRPRPRPSKMPRP`
Ans: Criterion not met

Q: // inclusive: shrunken log2 fold change at least -0.2? input: `RRIRKRPPRLPRPRPRPQHPPRP`
Ans: Criterion met

Q: // inclusive: shrunken log2 fold change at least -0.2? input: `RRIRYRPPRLPRPRPRPVLRPRP`
Ans: Criterion met

Q: // inclusive: shrunken log2 fold change at least -0.2? input: `RRIRQRPPRLPRPRPRPRDCPRP`
Ans: Criterion met

These entries and their values trace back to the supplement of paper PMC9112550.
